molecular target: human FLT4 (Homo sapiens, UniProt P35916); construct: a construct expressing the human FLT4 (789-1207) with an amino terminal GST tag; host or cells: Sf9 insect cells (baculovirus); test: FLT4 kinase assay (DELFIA enzyme inhibition); format: biochemical; settings: read-out: FLT4 IC50
Sequence (P35916 789-1207): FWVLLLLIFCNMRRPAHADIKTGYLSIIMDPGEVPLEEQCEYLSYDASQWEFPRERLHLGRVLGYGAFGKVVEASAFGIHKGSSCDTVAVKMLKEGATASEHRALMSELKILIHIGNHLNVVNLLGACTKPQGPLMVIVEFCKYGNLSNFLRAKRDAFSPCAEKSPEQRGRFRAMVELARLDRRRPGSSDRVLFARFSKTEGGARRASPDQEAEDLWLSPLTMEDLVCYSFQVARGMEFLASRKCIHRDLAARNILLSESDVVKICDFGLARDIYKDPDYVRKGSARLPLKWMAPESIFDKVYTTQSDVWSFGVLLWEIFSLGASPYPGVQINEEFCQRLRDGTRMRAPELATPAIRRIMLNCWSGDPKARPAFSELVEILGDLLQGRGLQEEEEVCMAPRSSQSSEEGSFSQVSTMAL
Counter-ions that a name gives are not always drawn.
PROPERTY LABEL: IC50

// solved cases for IC50 follow
[
  {
    "COMPOUND": "COc1cccc(-c2nc(-c3c(F)cccc3F)[nH]c2C(N)=O)c1",
    "IC50": "< 100 µM"
  },
  {
    "COMPOUND": "CS(=O)(=O)c1ccc(Nc2oc(-c3c(F)cccc3F)nc2C(N)=O)cc1",
    "IC50": "< 10 µM"
  },
  {
    "COMPOUND": "NC(=O)c1nc(-c2c(F)cccc2N2CCC(O)CC2)oc1-c1ccc(OCCN2CCC(O)CC2)cc1",
    "IC50": "< 100 µM"
  },
  {
    "COMPOUND": "NC(=O)c1nc(-c2c(F)cccc2F)oc1Nc1ccc(N2CCNC(=O)C2)cc1",
    "IC50": "< 10 µM"
  },
  {
    "COMPOUND": "NC(=O)c1nc(-c2cccc3[nH]ncc23)oc1Nc1ccc(N2CCNCC2)cc1",
    "IC50": "< 10 µM"
  }
]

List the reported IC50 of each compound below.
1. NC(=O)c1nc(-c2c(F)cccc2F)oc1-c1cccc(CN2CCNCC2)c1 [Example X-3, formate salt]
2. CN(CCOc1ccc(-c2oc(-c3c(F)cccc3F)nc2C(N)=O)cc1)Cc1ccccc1
3. NC(=O)c1nc(-c2c(F)cccc2F)oc1Nc1ccc(C2CCNCC2)cc1
4. CCN(CCO)CCOc1ccc(-c2oc(-c3c(F)cccc3F)nc2C(N)=O)cc1
5. COc1ccc(-c2nc(-c3c(Cl)cccc3Cl)[nH]c2C(N)=O)cc1
6. NC(=O)c1nc(Nc2cn[nH]c2)oc1-c1ccc(N2CCNCC2)cc1
7. NC(=O)c1[nH]c(-c2c(F)cccc2F)nc1-c1ccccc1
8. NC(=O)c1nc(-c2c(F)cccc2F)oc1-c1ccc(NCCN2CCOCC2)cc1

A:
["< 100 µM", "< 10 µM", "< 10 µM", "< 10 µM", "< 100 µM", "< 10 µM", "< 100 µM", "< 10 µM"]

----------
biological target: human FLT3 (Homo sapiens, UniProt P36888); construct: a construct expressing the human FLT3 (564-993) with an amino terminal GST tag; assay: FLT3 kinase assay (DELFIA enzyme inhibition)
Sequence (P36888 564-993): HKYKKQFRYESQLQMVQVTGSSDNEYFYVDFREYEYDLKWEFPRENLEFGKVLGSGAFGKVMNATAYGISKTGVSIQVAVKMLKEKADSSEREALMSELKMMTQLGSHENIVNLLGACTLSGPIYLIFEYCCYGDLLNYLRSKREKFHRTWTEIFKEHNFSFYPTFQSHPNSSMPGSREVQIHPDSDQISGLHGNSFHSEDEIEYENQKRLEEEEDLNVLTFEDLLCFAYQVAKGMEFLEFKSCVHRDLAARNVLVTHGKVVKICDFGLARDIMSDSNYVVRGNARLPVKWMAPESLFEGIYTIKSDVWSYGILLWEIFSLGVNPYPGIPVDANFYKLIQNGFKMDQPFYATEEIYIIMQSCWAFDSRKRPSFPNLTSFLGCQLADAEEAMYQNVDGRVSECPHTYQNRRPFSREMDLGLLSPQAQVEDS
pIC50: −log10 of the molar value.
PROPERTY LABEL: pIC50

// solved cases for pIC50 follow
[
  {
    "SMILES REPRESENTATION": "NC(=O)c1nc(-c2c(F)cccc2F)oc1-c1ccc(N2CCOCC2)nc1",
    "pIC50": "> 4.00"
  },
  {
    "SMILES REPRESENTATION": "COc1ccc(-c2oc(-c3ccccc3)nc2C(N)=O)cc1",
    "pIC50": "> 4.00"
  }
]

Q: Notebook entry, human FLT3 (Homo sapiens, UniProt P36888) assay: pIC50 of "CN1CCN(C(=O)c2ccc(Nc3oc(-c4c(F)cccc4Cl)nc3C(N)=O)cc2)CC1" = ?
A: > 5.00
